Readings of LC95 for the listed molecules
system: Trichogramma nubilale; assay: Contact toxicity against Trichogramma nubilale assessed as mortality after 24 hr by modified slight dry film method; type: functional

>  <MOLECULE>
N#Cc1nn(-c2c(Cl)cc(C(F)(F)F)cc2Cl)c(N)c1[S+]([O-])C(F)(F)F (centres undefined)

>  <LC95 [mgAi/L]>
1.82

$$$$
>  <MOLECULE>
CNC(=O)Oc1cccc2ccccc12

>  <LC95 [mgAi/L]>
5.71

$$$$
>  <MOLECULE>
CNC(=O)Oc1ccccc1C(C)C

>  <LC95 [mgAi/L]>
0.95

$$$$
>  <MOLECULE>
N#C/N=C1\SCCN1Cc1ccc(Cl)nc1

>  <LC95 [mgAi/L]>
461.2

$$$$
>  <MOLECULE>
CNC(=O)Oc1cccc(C)c1

>  <LC95 [mgAi/L]>
5.2

$$$$
>  <MOLECULE>
CCOP(=S)(OCC)Oc1nc(Cl)c(Cl)cc1Cl

>  <LC95 [mgAi/L]>
0.45

$$$$
>  <MOLECULE>
COP(=S)(OC)Oc1ccc([N+](=O)[O-])c(C)c1

>  <LC95 [mgAi/L]>
34.74

$$$$
>  <MOLECULE>
CC1(C)[C@H](/C=C(\Cl)C(F)(F)F)[C@@H]1C(=O)O[C@@H](C#N)c1cccc(Oc2ccccc2)c1 (relative stereo)

>  <LC95 [mgAi/L]>
127.6

$$$$
>  <MOLECULE>
CCCCN(CCCC)SN(C)C(=O)Oc1cccc2c1OC(C)(C)C2

>  <LC95 [mgAi/L]>
7.4

$$$$

====

Here the recorded LC95 is given for each entry.
tested on: Trichogramma nubilale; test: Contact toxicity against Trichogramma nubilale assessed as mortality after 24 hr by modified slight dry film method; type: functional
MEASURED PROPERTY: LC95

>  <MOLECULE>
CC[S+]([O-])c1c(C#N)nn(-c2c(Cl)cc(C(F)(F)F)cc2Cl)c1N (stereo not given)

>  <MEASURED PROPERTY>
LC95

>  <RESULT>
21.35 mgAi/L

$$$$
>  <MOLECULE>
CCOP(=S)(OCC)Oc1ncn(-c2ccccc2)n1

>  <MEASURED PROPERTY>
LC95

>  <RESULT>
21.65 mgAi/L

$$$$
>  <MOLECULE>
CN1COCN(Cc2cnc(Cl)s2)/C1=N\[N+](=O)[O-]

>  <MEASURED PROPERTY>
LC95

>  <RESULT>
13.35 mgAi/L

$$$$
>  <MOLECULE>
CC1(C)C(/C=C(\Cl)C(F)(F)F)C1C(=O)OC(C#N)c1cccc(Oc2ccccc2)c1 (stereo not given)

>  <MEASURED PROPERTY>
LC95

>  <RESULT>
93.25 mgAi/L

$$$$
>  <MOLECULE>
CCN(Cc1ccc(Cl)nc1)/C(=C/[N+](=O)[O-])NC

>  <MEASURED PROPERTY>
LC95

>  <RESULT>
31.37 mgAi/L

$$$$
